The next entries give measured pKi for Carbonic anhydrase 9 (Homo sapiens).
Answer as the number alone; pKi is minus log10 of concentration in mol/L.

COMPOUND	TESTED_TARGET	pKi
O=C(O)c1c(O)cccc1O	Carbonic anhydrase 9 (Homo sapiens)	5.23

Give Carbonic anhydrase 9 (Homo sapiens) pKi for CC(C)OC(=O)c1ccc(O)cc1 [ISOPROPYL 4-HYDROXYBENZOATE]
5.13

----------
Entries and their Ki
# TESTED_TARGET: Carbonic anhydrase 14 (Homo sapiens)
# Sequence (Q9ULX7 whole entry): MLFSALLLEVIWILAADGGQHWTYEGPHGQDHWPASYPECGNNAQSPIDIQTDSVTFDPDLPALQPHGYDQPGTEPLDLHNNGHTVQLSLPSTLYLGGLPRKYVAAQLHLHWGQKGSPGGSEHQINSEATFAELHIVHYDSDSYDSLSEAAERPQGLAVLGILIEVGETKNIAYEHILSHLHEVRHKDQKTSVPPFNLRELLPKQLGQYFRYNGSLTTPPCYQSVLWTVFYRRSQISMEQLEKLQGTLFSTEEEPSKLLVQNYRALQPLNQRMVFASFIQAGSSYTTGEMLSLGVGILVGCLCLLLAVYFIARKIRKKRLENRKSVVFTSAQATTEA
Give the value in nM but do not write nM after it.

COMPOUND	UNITS	Ki
O=C(O)c1ccc(O)c(O)c1 [PROTOCATECHUIC ACID]	nM	690
CC(C)OC(=O)/C=C/c1ccc(O)cc1 [ISOPROPYL 3-(4-HYDROXYPHENYL)ACRYLATE]	nM	730
O=C(O)c1cc(O)ccc1O [GENTISIC ACID]	nM	67000
O=C(O)c1cc(O)cc(O)c1 [3,5-DIHYDROXYBENZOIC ACID]	nM	650

Entry COc1ccc(C(=O)O)cc1OC [VERATRIC ACID] has what Ki?
740

Reported Ki for COC(=O)/C=C/c1ccc(O)cc1 [METHYL P-HYDROXYCINNAMATE] : what is it?
830

Consider the compound O=C(O)c1ccc(O)cc1O [2,4-DIHYDROXYBENZOIC ACID] and give its measured Ki.
70000

Sample Nc1cccc(O)c1 [3-AMINOPHENOL] — what was its Ki?
7200

Quick check: Ki of COc1ccc(OC)cc1 [1,4-DIMETHOXYBENZENE] ?
6790

Which Ki value belongs to COC(=O)c1ccc(O)cc1O [METHYL 2,4-DIHYDROXYBENZOATE] ?
860

Entry under review: CCOC(=O)c1ccc(O)cc1 [ETHYLPARABEN] . Reported Ki?
7700

----------
Below are pKi values recorded for Carbonic anhydrase 1 (Homo sapiens).
Lab note — pKi values are minus log10 of concentrations in M.

COMPOUND	pKi
CCOC(=O)c1ccc(O)cc1	5.10

Under Carbonic anhydrase 1 (Homo sapiens): pKi value of O=C(O)c1ccc(O)cc1O [2,4-DIHYDROXYBENZOIC ACID] ?
5.28

State its pKi on Carbonic anhydrase 1 (Homo sapiens): `O=C(O)c1c(O)cccc1O`
Sequence (P00915 whole entry): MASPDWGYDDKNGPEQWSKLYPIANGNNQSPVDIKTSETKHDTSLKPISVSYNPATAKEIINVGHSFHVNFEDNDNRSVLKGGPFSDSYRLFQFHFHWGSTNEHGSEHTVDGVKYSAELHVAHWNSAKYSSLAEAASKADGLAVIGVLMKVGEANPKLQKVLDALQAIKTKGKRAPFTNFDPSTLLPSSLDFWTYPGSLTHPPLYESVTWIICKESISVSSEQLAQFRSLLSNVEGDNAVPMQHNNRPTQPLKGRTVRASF
5.24

----------
Assay read-out pKi; system under study: Carbonic anhydrase 9 (Homo sapiens).
// returns pKi (minus log10 of molar concentration), number only

Solved entries:
COMPOUND	pKi
CC(C)OC(=O)/C=C/c1ccc(O)cc1 [ISOPROPYL 3-(4-HYDROXYPHENYL)ACRYLATE]	6.17
CC(C)OC(=O)c1cc(O)ccc1O	6.09
COC(=O)c1cc(O)cc(O)c1 [METHYL 3,5-DIHYDROXYBENZOATE]	6.09
CC(C)OC(=O)c1cc(O)cc(O)c1	6.05
CCOC(=O)c1c(O)cccc1O	6.11

Now consider a different compound.
So what's the measured pKi for this one? CCOC(=O)/C=C/c1ccc(O)cc1 [ETHYL P-COUMARATE]
6.21

----------
# TESTED_TARGET: Carbonic anhydrase 2 (Homo sapiens, UniProt P00918)
pKi: −log10 of the molar value.
Mark Criterion not met for pKi values under 6, and Criterion met for everything at or above.

Use the examples below as a reference point.
MOLECULE	CLASSIFICATION
CCOC(=O)c1ccc(O)cc1	Criterion not met
O=C(O)c1c(O)cccc1O	Criterion not met
O=C(O)c1ccc(O)cc1O [2,4-DIHYDROXYBENZOIC ACID]	Criterion not met

Record `CC(C)OC(=O)c1cc(O)ccc1O` ; criterion: pKi no lower than 6. Met?
Criterion met

For this molecule, is measured pKi 6 or higher? `COC(=O)c1ccc(O)cc1`
Criterion not met

Data provenance: ChEMBL document CHEMBL2331404
